Where these numbers come from: PubChem BioAssay AID1159580

Reported normalized growth by item:
- Test: chemical genetic growth profiling, strain panel (AID 1159580);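 note: tested at 20 µM; growth read once vehicle control cultures reached saturation at 30 °C; 1 = growth at the plate median or of vehicle wells; lower values mean less growth of the strain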
- Setup conditions: S. cerevisiae deletion strains, growth OD, locus YLR268W, strain sec22, hits give low values
The whole screen tested about 5,500 compounds, of which about 2,000 (36%) were called active. Inconclusive results (about 18%) are left out. The list shows a part of the results.

# Molecule, normalized growth
data = [
    ("c1ccc(CC2=NCCN2)cc1", 0.905),
    ("COC(=O)C1[C@H]2C[C@H]3c4[nH]c5ccccc5c4CCN3C[C@@H]2CC[C@@H]1O (stereo partly drawn)", 1.06),
    ("CC(=O)O[C@]1(C(C)=O)CCC2C3C[C@H](C)C4=CC(=O)CC[C@]4(C)C3CC[C@@]21C (stereo partly drawn)", 0.977),
    ("O=C(O)c1cc(=O)c2ccc(Cl)cc2[nH]1", 0.986),
    ("COC(=O)[C@H]1[C@H]2C[C@H]3c4[nH]c5ccccc5c4CCN3C[C@H]2CC[C@@H]1O", 1),
    ("Cc1cc(=O)c2c(O)c(C)c(O)cc2o1", 0.957),
    ("CCc1nc(N)nc(N)c1-c1ccc(Cl)cc1", 0.968),
    ("COc1ccc(-c2coc3c(OC)c(O)ccc3c2=O)cc1", 0.942),
    ("O=C1C[C@@H](c2ccccc2)Oc2cc(O)cc(O)c21", 0.943),
    ("Cc1cc(C(C)(C)CC(C)(C)C)ccc1OCCOCC[N+](C)(C)Cc1ccccc1", 0.0813),
    ("CCCCOc1ccc(CC(=O)NO)cc1", 0.983),
    ("CC1(C)S[C@@H]2[C@H](NC(=O)[C@H](NC(=O)N3CCNC3=O)c3ccccc3)C(=O)N2C1C(=O)O (stereo partly drawn)", 0.993),
    ("CCCCCC(=O)O[C@]1(C(C)=O)CCC2C3CCC4=CC(=O)CC[C@]4(C)C3CC[C@@]21C (stereo partly drawn)", 1.02),
    ("CC(C)=CCc1c(O)cc(C)oc1=O", 0.999),
    ("CCCCCCCCCCCCC[N+](C)(C)Cc1ccccc1", 0.0715),
    ("Cc1ccc(O)cc1", 0.998),
    ("NC(=O)N1c2ccccc2CC(=O)c2ccccc21", 1),
    ("COc1ccc([C@@H]2CC(=O)c3c(O)cc(O)cc3O2)cc1O", 1.06),
    ("Oc1ccc(O)cc1", 0.98),
    ("COC(=O)[C@@H]1C(O)CC[C@H]2CN3CCc4c([nH]c5ccccc45)[C@@H]3C[C@@H]21 (stereo partly drawn)", 1.01),
    ("O=C1C[C@@H](c2ccc(O)cc2)Oc2cc(O)cc(O)c21", 1.01),
    ("CC1(O)/C=C/C=C(\\CO)C2CC(C)(C)C2(O)CC1 (stereo not drawn)", 0.986),
    ("C[N+](C)(C)CC(=O)[O-]", 0.96),
    ("O=C(/C=C/C=C/c1ccc2c(c1)OCO2)N1CCCCC1", 0.807),
    ("O=C1CC(c2ccccc2)Oc2ccccc21 (stereo not drawn)", 0.962),
    ("COc1ccc(-c2coc3c(OC)c(OC)ccc3c2=O)cc1", 0.953),
    ("CCN(CC)C(=S)SSC(=S)N(CC)CC", 0.061),
    ("C=CCc1ccc2c(c1)OCO2", 0.987),
    ("COc1cc2c(cc1OC)C(=O)C(CC1CCN(Cc3ccccc3)CC1)C2 (stereo not drawn)", 0.837),
    ("COc1ccc(C2CC(=O)c3ccc(OC)cc3O2)cc1 (stereo not drawn)", 0.832),
    ("NC(N)=Nc1nc(CSCCC(N)=NS(N)(=O)=O)cs1", 1.05),
    ("NC(=O)c1ncn([C@@H]2O[C@H](CO)[C@@H](O)[C@H]2O)c1O", 0.988),
    ("CNc1ccccc1C(=O)N1CCc2c([nH]c3ccccc23)C1=O", 0.954),
    ("CC(=O)O[C@]1(C(C)=O)CCC2C3C=C(C)C4=CC(=O)CCC4(C)C3CCC21C (stereo partly drawn)", 0.913),
    ("Cc1c(N(C)C)c(=O)n(-c2ccccc2)n1C", 0.963),
    ("COc1c(O)cc2oc3cc(O)c(CC=C(C)C)c(O)c3c(=O)c2c1CC=C(C)C", 0.704),
    ("NC/C=C/C(=O)O", 0.98),
    ("COc1cc(O)c2c(=O)cc(C)oc2c1CC=C(C)C", 0.816),
    ("c1ccc(CN(CC2=NCCN2)c2ccccc2)cc1", 0.999),
    ("COc1ccc2cc1Oc1ccc(cc1)C[C@H]1c3cc(c(OC)cc3CCN1C)Oc1c(OC)c(OC)cc3c1[C@H](C2)N(C)CC3", 1.01),
    ("COc1ccc(-c2coc3c(OC)c(OC)cc(OC)c3c2=O)cc1", 0.952),
    ("OCc1ccccc1O[C@@H]1O[C@H](CO)[C@@H](O)[C@H](O)[C@H]1O", 0.979),
    ("CC(C)N(C(=O)CCl)c1ccccc1", 1.02),
    ("CC(=O)O[C@@](C)(CCC=C(C)C)C1CC=C(C)CC1 (stereo partly drawn)", 1),
    ("O=C1CC(c2ccc(O)cc2)Oc2ccccc21 (stereo not drawn)", 0.784),
    ("O=C(O)C1C(O)CCC2CN3CCc4c([nH]c5ccccc45)C3CC21 (stereo not drawn)", 1.03),
    ("O=C(O)c1cc(=O)c2cc(Cl)ccc2[nH]1", 1.01),
    ("COc1ccc(C[C@H]2NC[C@H](O)[C@H]2OC(C)=O)cc1", 0.854),
]
